Tested on: NCI-H460 lung
assay.summary: NCI-60 one-dose screen, 48 h
particulars: 10 µM unless noted
This is part of a sample that, as a whole, favours compounds with a hit. Of some 83,000 tested, about 20% had one in any assay. Active and inactive are the calls of the source. How the source made its calls: active means growth percent below 10; inactive means the rest.
Can you answer with just one of these options? active, inactive

Some solved cases for reference:
compound	classification
COc1cccc2c1nc1cccc(OC)c1[n+]2[O-]	inactive
CCOC(=O)c1sc(NS(=O)(=O)c2ccccc2)nc1C	inactive
O=C1Nc2c(c(=O)n(-c3ccccc3)c3ccccc23)C(c2ccc(Cl)cc2)N1 (stereo not given)	inactive
CCOP1(=O)CC(C)=C(Cl)C(P(=O)(O)O)C1 (stereo not given)	inactive
COC1NC(Cl)=C(C#N)C(C#N)(C#N)C1(C)C (stereo not given)	inactive

// outcome(item) with item = COC(=O)C(C(=O)OC)C(Br)C(Br)C(Br)c1ccccc1 (stereo not given) inactive

Another: CCC(C)(CC)c1ccc(O)c(C)c1 inactive

Next entry: BrCCCOc1ccc(Oc2ccc(OCCCBr)cc2)cc1 inactive

And for CSc1nc(N)n2nccc2n1 ? inactive

How about this compound: CC(=N\N=C(N)N)/C(=N/N=C(N)N)c1ccccc1 inactive

// query: CC[C@@H](C)/C=C(C)/C=C/C(=O)c1c(O)c(-c2ccc(OC(=O)[C@@]34CC[C@@](C)(C(=O)O3)C4(C)C)cc2)cn(O)c1=O active

Again, but for CC(=O)OCC1O[C@@H](OC(C)=O)[C@@H](NC(=O)NS(=O)(=O)c2ccccc2)C(OC(C)=O)[C@@H]1OC(C)=O (stereo not given in full) inactive

Also check COc1ccc(-c2cn3ccnc3c(-c3ccc4ncn(C5CCCCC5)c4c3)n2)cc1 active

Thanks! And COc1ccccc1Nc1nnc(COc2ccc(CNC(=O)CCCC/C=C/C(C)C)cc2OC)o1 ? inactive

What about this compound? CC(=O)c1ccc2c(c1)c1ccccc1n2C inactive

And CCCCN(CCCC)c1ccc(C(=O)O)cc1 ? inactive

Here is the next compound: O=C1C(Br)=CC2C1C1C3CCC3C2(Br)C12OCCO2 (stereo not given) inactive

Consider next the compound OCCN1CCCN(CCCN2c3ccccc3Sc3ccc(C(F)(F)F)cc32)CC1 in the same way. inactive

Param item: C/C(CCC(=O)O)=N/Nc1ccc([N+](=O)[O-])cc1 inactive

Please give the result for COc1ccc(Cn2cc3c(c2-c2ccc(O)cc2)CCc2cnoc2-3)cc1 too. active
